conditions: rat, in vivo, 35 mg/kg
Readout Type: % Enhancement in bioavailability, BE from Zingiber officinale (%)
Give bare numbers, in %.

Molecule	Display Unit	Recorded Result
CNC(=C[N+](=O)[O-])NCCSCc1ccc(CN(C)C)o1	%	147
C=CC[C@@H]1/C=C(\C)C[C@H](C)C[C@H](OC)[C@H]2O[C@@](O)(C(=O)C(=O)N3CCCC[C@H]3C(=O)O[C@H](/C(C)=C/[C@@H]3CC[C@@H](O)[C@H](OC)C3)[C@H](C)[C@@H](O)CC1=O)[C@H](C)C[C@@H]2OC	%	75
O=C(O)Cc1ccccc1Nc1c(Cl)cccc1Cl	%	90

// input: 5 molecules below; output: % Enhancement in bioavailability, BE from Zingiber officinale for each
1. Cc1onc(-c2ccccc2Cl)c1C(=O)N[C@@H]1C(=O)N2[C@@H]1SC(C)(C)[C@@H]2C(=O)O
2. CC[C@H]1OC(=O)[C@H](C)[C@@H](O[C@H]2C[C@@](C)(OC)[C@@H](O)[C@H](C)O2)[C@H](C)[C@@H](O[C@@H]2O[C@H](C)C[C@H](N(C)C)[C@H]2O)[C@](C)(O)C[C@@H](C)C(=O)[C@H](C)[C@@H](O)[C@]1(C)O
3. CC[C@H]1OC(=O)[C@H](C)[C@@H](O[C@H]2C[C@@](C)(OC)[C@@H](O)[C@H](C)O2)[C@H](C)[C@@H](O[C@@H]2O[C@H](C)C[C@H](N(C)C)[C@H]2O)[C@](C)(O)C[C@@H](C)/C(=N\OCOCCOC)[C@H](C)[C@@H](O)[C@]1(C)O
4. COc1cc(/C=C/C(=O)CC(=O)/C=C/c2ccc(O)c(OC)c2)ccc1O
5. CCOC(=O)C1=C(COCCN)NC(C)=C(C(=O)OC)C1c1ccccc1Cl (centres unmarked)

Result block:
[76, 68, 72, 49, 68]

// input: 8 molecules below; output: % Enhancement in bioavailability, BE from Zingiber officinale for each
1. C[C@@H]1O[C@@H](OC[C@H]2O[C@@H](Oc3c(-c4ccc(O)c(O)c4)oc4cc(O)cc(O)c4c3=O)[C@H](O)[C@@H](O)[C@@H]2O)[C@H](O)[C@H](O)[C@H]1O
2. CC[C@H](C)[C@H](N)C(=O)O
3. Nc1nc2c(ncn2COCCO)c(=O)[nH]1
4. CC(C)C[C@H](N)C(=O)O
5. NCCCC[C@H](N)C(=O)O
6. CC1=C(C(=O)O)N2C(=O)[C@@H](NC(=O)[C@H](N)c3ccc(O)cc3)[C@H]2SC1
7. CN1C(C(=O)Nc2ccccn2)=C(O)c2ccccc2S1(=O)=O
8. N[C@@H]1CON=C1O

Result block:
1. 42
2. 15
3. 82
4. 24
5. 19
6. 68
7. 86
8. 71

// input: 2 molecules below; output: % Enhancement in bioavailability, BE from Zingiber officinale for each
1. CC[C@H]1OC(=O)[C@H](C)[C@@H](O[C@H]2C[C@@](C)(OC)[C@@H](O)[C@H](C)O2)[C@H](C)[C@@H](O[C@@H]2O[C@H](C)C[C@H](N(C)C)[C@H]2O)[C@](C)(O)C[C@@H](C)CN(C)[C@H](C)[C@@H](O)[C@]1(C)O
2. CC(C)[C@H](N)C(=O)O

Result block:
78
21
